# reported pKB; entries follow
Biological target: gastrin receptor (Cavia porcellus)
Construct: Strips of muscle (approximately 2.5 cm by 1 cm) are removed from the proximal area of the stomach; from tissue; host or cells: guinea-pig proximal stomach (fundus) muscle strips
Sequence (H0VZC5 1-426): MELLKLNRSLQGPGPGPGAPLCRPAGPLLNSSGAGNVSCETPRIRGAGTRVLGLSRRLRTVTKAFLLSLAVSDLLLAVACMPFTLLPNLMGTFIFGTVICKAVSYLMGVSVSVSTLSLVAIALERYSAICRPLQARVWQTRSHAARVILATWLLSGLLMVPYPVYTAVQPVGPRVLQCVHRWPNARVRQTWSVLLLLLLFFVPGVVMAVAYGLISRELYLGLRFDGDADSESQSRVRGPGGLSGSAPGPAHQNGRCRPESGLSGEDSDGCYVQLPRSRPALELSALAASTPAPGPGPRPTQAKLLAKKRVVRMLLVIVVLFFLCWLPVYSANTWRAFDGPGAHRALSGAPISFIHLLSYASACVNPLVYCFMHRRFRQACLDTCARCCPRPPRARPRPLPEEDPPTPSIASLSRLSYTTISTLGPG
Test: guinea-pig fundus assay for gastrin activity (stomach muscle strips)
Assay type: cell-based
Conditions: 10^-8 M devazepide present, 60 minute equilibration, agonist e.g. pentagastrin, standard errors less than 5%
measure_name: pKB

>>> reported_value("COc1ccccc1CCNC(=O)[C@H](CC(=O)O)NC(=O)[C@H](Cc1ccc2ccccc2c1)NC(=O)[C@H](Cc1c[nH]c2ccccc12)NC(=O)OC(C)(C)C")
5.8
>>> reported_value("COc1cc2c(cc1OC)CN(C(=O)C(CC(=O)O)NC(=O)C(Cc1ccc3ccccc3c1)NC(=O)C(Cc1c[nH]c3ccccc13)NC(=O)OC(C)(C)C)CC2 (centres unmarked)")
5.7
>>> reported_value("CC(C)(C)OC(=O)N[C@@H](Cc1c[nH]c2ccccc12)C(=O)N[C@@H](Cc1ccc2ccccc2c1)C(=O)N[C@@H](CC(=O)O)C(=O)NCCc1ccc([N+](=O)[O-])cc1")
5.7
>>> reported_value("CC(C)(C)OC(=O)N[C@@H](Cc1c[nH]c2ccccc12)C(=O)N[C@@H](Cc1ccc2ccccc2c1)C(=O)N[C@@H](CC(=O)O)C(=O)NCCc1ccncc1")
6.0
>>> reported_value("CC(C)(C)OC(=O)N[C@@H](Cc1c[nH]c2ccccc12)C(=O)N[C@@H](Cc1ccc2ccccc2c1)C(=O)N[C@@H](CC(=O)O)C(=O)NCCc1ccc(Cl)cc1")
5.0
>>> reported_value("COc1ccc(CCNC(=O)[C@H](CC(=O)O)NC(=O)[C@H](Cc2ccc3ccccc3c2)NC(=O)[C@H](Cc2c[nH]c3ccccc23)NC(=O)OC(C)(C)C)cc1")
5.9
>>> reported_value("CC(C)(C)OC(=O)N[C@@H](Cc1c[nH]c2ccccc12)C(=O)N[C@@H](Cc1ccc2ccccc2c1)C(=O)N[C@@H](CC(=O)O)C(=O)N[C@@H]1CCC[C@@H]1c1ccccc1 (single isomer, unassigned; diastereomer 2) [Example 34]")
5.8
>>> reported_value("CC(C)(C)OC(=O)N[C@@H](Cc1c[nH]c2ccccc12)C(=O)N[C@@H](Cc1ccc2ccccc2c1)C(=O)N[C@@H](CC(=O)O)C(=O)N1CCc2ccccc2C1")
5.5

* * *

biological target: gastrin receptor (Mus musculus, UniProt P56481); construct: assayed for gastrin activity using the mouse stomach assay; from tissue; host or cells: isolated mouse stomach; test: mouse stomach assay for gastrin activity (isolated stomach, acid secretion); type: cell-based; settings: isolated mouse stomach assay, gastrin antagonism; standard errors less than 5%
Sequence (P56481 whole entry): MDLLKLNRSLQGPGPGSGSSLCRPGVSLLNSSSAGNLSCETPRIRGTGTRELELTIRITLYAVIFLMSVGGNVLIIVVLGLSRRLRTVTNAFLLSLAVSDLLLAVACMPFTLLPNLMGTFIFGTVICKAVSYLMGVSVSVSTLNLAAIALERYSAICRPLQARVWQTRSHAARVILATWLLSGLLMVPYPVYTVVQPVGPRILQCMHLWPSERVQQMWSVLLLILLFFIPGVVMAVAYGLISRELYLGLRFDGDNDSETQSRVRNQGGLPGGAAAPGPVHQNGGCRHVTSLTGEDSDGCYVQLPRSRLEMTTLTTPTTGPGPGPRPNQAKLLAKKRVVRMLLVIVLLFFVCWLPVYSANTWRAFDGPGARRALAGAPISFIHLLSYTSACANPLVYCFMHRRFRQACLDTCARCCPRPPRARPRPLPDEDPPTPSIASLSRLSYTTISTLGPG
Non-standard residues stand in square brackets, D forms with d. Residues, ends and D or L forms follow the SMILES beside them. *: point of attachment. Phe(4-Cl) = N[C@@H](Cc1ccc(Cl)cc1)C(=O)O; αMeW = C[C@](N)(Cc1c[nH]c2ccccc12)C(=O)O; 2Nal = N[C@@H](Cc1ccc2ccccc2c1)C(=O)O; Boc = CC(C)(C)OC(=O)*; For = O=C*
measure_name: pKB mouse stomach

>>> reported_value("CC(C)(C)OC(=O)N[C@@H](Cc1c[nH]c2ccccc12)C(=O)N[C@@H](Cc1ccc2ccccc2c1)C(=O)N[C@@H](CC(=O)O)C(=O)N[C@@H]1CCC[C@@H]1c1ccccc1 (single isomer, unassigned; diastereomer 2) [Example 34]")
6.5
>>> reported_value("CC(C)(C)OC(=O)N[C@@H](Cc1cn(C=O)c2ccccc12)C(=O)N[C@@H](Cc1ccc2ccccc2c1)C(=O)N[C@@H](CC(=O)O)C(=O)N[C@@H](Cc1ccccc1)C(N)=O [Example 60] (Boc-W(For)[2Nal]DF-NH2)")
5.3
>>> reported_value("COc1ccc(C[C@H](NC(=O)[C@H](CC(=O)O)NC(=O)[C@H](Cc2ccc3ccccc3c2)NC(=O)[C@H](Cc2c[nH]c3ccccc23)NC(=O)OC(C)(C)C)C(N)=O)cc1 [Example 7] (Boc-W[2Nal]DY(Me)-NH2)")
5.7
>>> reported_value("CC(C)(C)OC(=O)N[C@@](C)(Cc1c[nH]c2ccccc12)C(=O)N[C@@H](Cc1ccc2ccccc2c1)C(=O)N[C@@H](CC(=O)O)C(=O)N[C@@H](Cc1ccccc1)C(N)=O [Example 17] (Boc-[αMeW][2Nal]DF-NH2)")
5.9
>>> reported_value("CN(C)C(=O)[C@H](Cc1ccccc1)NC(=O)[C@H](CC(=O)O)NC(=O)[C@H](Cc1ccc2ccccc2c1)NC(=O)[C@H](Cc1c[nH]c2ccccc12)NC(=O)OC(C)(C)C [Example 6] (Boc-W[2Nal]DF-NMe2)")
5.6
>>> reported_value("CC(C)(C)OC(=O)N[C@@H](Cc1c[nH]c2ccccc12)C(=O)N[C@@H](Cc1ccc2ccccc2c1)C(=O)N[C@@H](CC(=O)O)C(=O)NCCc1ccc(Cl)c(Cl)c1")
5.2
>>> reported_value("COc1ccc(CCNC(=O)[C@H](CC(=O)O)NC(=O)[C@H](Cc2ccc3ccccc3c2)N(C)C(=O)[C@H](Cc2c[nH]c3ccccc23)NC(=O)OC(C)(C)C)cc1")
5.3
>>> reported_value("CC(C)(C)OC(=O)N[C@@H](Cc1c[nH]c2ccccc12)C(=O)N[C@@H](Cc1ccc2ccccc2c1)C(=O)N[C@@H](CC(=O)O)C(=O)N[C@@H]1CCC[C@H]1c1ccccc1 (single isomer, unassigned; diastereomer 1)")
5.0
>>> reported_value("CC(C)(C)OC(=O)N[C@@H](Cc1c[nH]c2ccccc12)C(=O)N[C@@H](Cc1ccc2ccccc2c1)C(=O)N[C@@H](CC(=O)O)C(=O)NCCc1ccc(Cl)cc1")
5.9
>>> reported_value("COc1ccc(CCNC(=O)[C@H](CC(=O)O)NC(=O)[C@H](Cc2ccc3ccccc3c2)NC(=O)[C@H](Cc2c[nH]c3ccccc23)NC(=O)OC(C)(C)C)cc1")
6.0
>>> reported_value("CC(C)(C)OC(=O)N[C@@H](Cc1c[nH]c2ccccc12)C(=O)N[C@@H](Cc1ccc2ccccc2c1)C(=O)N[C@H](CC(=O)O)C(=O)NCCc1ccc(F)cc1")
5.6
>>> reported_value("CC(C)(C)OC(=O)N[C@@H](Cc1c[nH]c2ccccc12)C(=O)N[C@@H](Cc1ccc2ccccc2c1)C(=O)N[C@@H](CC(=O)O)C(=O)NCCc1ccc(F)cc1")
5.5
>>> reported_value("COc1ccccc1CCNC(=O)[C@H](CC(=O)O)NC(=O)[C@H](Cc1ccc2ccccc2c1)NC(=O)[C@H](Cc1c[nH]c2ccccc12)NC(=O)OC(C)(C)C")
5.2
>>> reported_value("CNC(=O)[C@H](Cc1ccccc1)NC(=O)[C@H](CC(=O)O)NC(=O)[C@H](Cc1ccc2ccccc2c1)NC(=O)[C@H](Cc1c[nH]c2ccccc12)NC(=O)OC(C)(C)C [Example 5] (Boc-W[2Nal]DF-NHMe)")
5.6
>>> reported_value("CC(C)(C)OC(=O)N[C@@H](Cc1c[nH]c2ccccc12)C(=O)N[C@@H](Cc1ccc2ccccc2c1)C(=O)N[C@@H](CC(=O)O)C(=O)NCCc1cccc(F)c1")
5.3
>>> reported_value("CC(C)(C)OC(=O)N[C@@H](Cc1c[nH]c2ccccc12)C(=O)N[C@@H](Cc1ccc2ccccc2c1)C(=O)N[C@@H](CC(=O)O)C(=O)N[C@@H](Cc1ccc(Cl)cc1)C(N)=O [Example 11] (Boc-W[2Nal]D[Phe(4-Cl)]-NH2)")
6.6
>>> reported_value("NC(=O)[C@H](Cc1ccccc1)NC(=O)[C@H](CC(=O)O)NC(=O)[C@H](Cc1ccc2ccccc2c1)NC(=O)Cc1c[nH]c2ccccc12")
6.2
>>> reported_value("CC(C)(C)OC(=O)N[C@@H](Cc1c[nH]c2ccccc12)C(=O)N[C@@H](Cc1ccc2ccccc2c1)C(=O)N[C@@H](CC(=O)O)C(=O)N[C@@H]1CCC[C@@H]1c1ccccc1 (single isomer, unassigned; diastereomer 1) [Example 33]")
5.2
>>> reported_value("CC(C)(C)OC(=O)N[C@@H](Cc1c[nH]c2ccccc12)C(=O)N[C@@H](Cc1ccc2ccccc2c1)C(=O)N[C@@H](CC(=O)O)C(=O)NCCc1ccc(N)cc1")
5.6
>>> reported_value("CC(C)(C)OC(=O)N[C@@H](Cc1c[nH]c2ccccc12)C(=O)N[C@@H](Cc1ccc2ccccc2c1)C(=O)N[C@@H](CC(=O)O)C(=O)NCCc1ccccc1F")
5.4
>>> reported_value("COc1cccc(CCNC(=O)[C@H](CC(=O)O)NC(=O)[C@H](Cc2ccc3ccccc3c2)NC(=O)[C@H](Cc2c[nH]c3ccccc23)NC(=O)OC(C)(C)C)c1")
5.6
